Where do these numbers come from? They come from patent US20140161804A1.

molecular target: T1, Human TNF (human, UniProt P01375 77-233); assay: in vitro display selection on recombinant human TNF
T1 construct: Biotinylated in the ELISA; purified recombinant protein in SPR; also called h TNF; huTNF
T1 sequence (P01375 77-233 limits assumed): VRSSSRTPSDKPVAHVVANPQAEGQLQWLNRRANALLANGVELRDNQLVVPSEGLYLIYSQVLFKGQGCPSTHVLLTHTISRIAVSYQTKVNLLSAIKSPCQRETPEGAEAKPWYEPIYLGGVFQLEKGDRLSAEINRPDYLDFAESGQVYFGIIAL
Metric: binding result

>>> value("AE11-5 (antibody, V domains shown, Fully human anti-TNF antibody isolated by in vitro display; also called AE11-5 VH; AE11-5 VL) VH: EVQLVQSGAEVKKPGSSAKVSCKASGGTFSSYAISWVRQAPGQGLEWMGGIIPILGTANYAQKFLGRVTITADESTSTVYMELSSLRSEDTAVYYCARGLYYDPTRADYWGQGTLVTVSS VL: DIVMTQSPDFHSVTPKEKVTITCRASQSIGSSLHWYQQKPDQSPKLLIRHASQSISGVPSRFSGSGSGTDFTLTIHSLEAEDAATYYCHQSSSSPPPTFGQGTQVEIK")
"binds"
>>> value("TNF-JK1 (antibody, V domains shown, Fully human anti-TNF antibody isolated by in vitro display; also called TNF-JK1 VH; TNF-JK1 VL) VH: EVQLVESGGGLVQPGGSLRLSCATSGFTFNNYWMSWVRQAPGKGLEWVANINHDESEKYYVDSAKGRFTISRDNAEKSLFLQMNSLRAEDTAVYYCARIIRGRVGFDYYNYAMDVWGQGTLVTVSS VL: DIRLTQSPSPLSASVGDRVTITCRASQSIGNYLNWYQHKPGKAPKLLIYAASSLQSGVPSRFSGTGSGTDFTLTISSLQPEDFATYYCQESYSLIFAGGTKVEIK")
"binds"
>>> value("AE11-1 (antibody, V domains shown, Fully human anti-TNF antibody isolated by in vitro display; also called AE11-1 VH; AE11-1 VL) VH: EVQLVQSGAEVKKPGASVKVSCKASGYTFTSYDVNWVRQATGQGLEWMGWMNPNSGNTGYAQKFQGRVTITADESTSTAYMELSSLRSEDTAVYYCAIFDSDYMDVWGKGTLVTVSS VL: SYELTQPPSVSLSPGQTARITCSGDALPKQYAYWYQQKPGQAPVLVIYKDTERPSGIPERFSGSSSGTTVTLTISGAQAEDEADYYCQSADSSGTSWVFGGGTKLTVL")
"binds"
